# System: 653999-131-R-J2-PDC complex spheroids, growth % test/control;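 note: spheroids exposed to agents for seven days; 100% = DMSO vehicle control viability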
# METHOD SUMMARY: Anticancer human tumor 653999-131-R-J2-PDC patient-derived lung adenocarcinoma cell line growth inhibition [AhR]
# CONDITION INFO: second compound 0.1 µM; first compound 3 µM; stronger effect = lower value
PARAMETER MEASURED: viability, T/C (%)
Numeric only. Scale: %

COMPOUND	TARGET ENTITY	viability, T/C [%]
CCN(c1cc(-c2ccc(CN3CCOCC3)cc2)cc(C(=O)NCc2c(C)cc(C)[nH]c2=O)c1C)C1CCOCC1 + Cc1cncc(-c2nc(NCCc3c[nH]c4ccccc34)c3ncn(C(C)C)c3n2)c1	653999-131-R-J2-PDC complex spheroids, growth % test/control	102
CCN(c1cc(-c2ccc(CN3CCOCC3)cc2)cc(C(=O)NCc2c(C)cc(C)[nH]c2=O)c1C)C1CCOCC1 + Cc1ccccc1N=Nc1ccc(NC(=O)c2ccnn2C)c(C)c1	653999-131-R-J2-PDC complex spheroids, growth % test/control	92.7
O=C(C=Cn1cnc(-c2cc(C(F)(F)F)cc(C(F)(F)F)c2)n1)NNc1cnccn1 + Cc1ccccc1N=Nc1ccc(NC(=O)c2ccnn2C)c(C)c1	653999-131-R-J2-PDC complex spheroids, growth % test/control	48

Q: Answer with reported viability, T/C of O=C(C=Cn1cnc(-c2cc(C(F)(F)F)cc(C(F)(F)F)c2)n1)NNc1cnccn1 + CC(CO)NC(=O)c1cc(-c2ccc(Cl)cc2)nn(-c2cnn(C)c2)c1=O
Ans: 45.1

Q: Output viability, T/C of CCN(c1cc(-c2ccc(CN3CCOCC3)cc2)cc(C(=O)NCc2c(C)cc(C)[nH]c2=O)c1C)C1CCOCC1 + CC(CO)NC(=O)c1cc(-c2ccc(Cl)cc2)nn(-c2cnn(C)c2)c1=O
Ans: 90

Q: Could you please provide reported viability, T/C for O=C(C=Cn1cnc(-c2cc(C(F)(F)F)cc(C(F)(F)F)c2)n1)NNc1cnccn1 + Cc1cncc(-c2nc(NCCc3c[nH]c4ccccc34)c3ncn(C(C)C)c3n2)c1 ? Thanks!
Ans: 38.3
